molecular target: Indoleamine 2,3-dioxygenase 1 (Homo sapiens, UniProt P14902); experiment: Inhibition of IDO1 in human HeLa cells; assay type: cell-based
Sequence (P14902 whole entry): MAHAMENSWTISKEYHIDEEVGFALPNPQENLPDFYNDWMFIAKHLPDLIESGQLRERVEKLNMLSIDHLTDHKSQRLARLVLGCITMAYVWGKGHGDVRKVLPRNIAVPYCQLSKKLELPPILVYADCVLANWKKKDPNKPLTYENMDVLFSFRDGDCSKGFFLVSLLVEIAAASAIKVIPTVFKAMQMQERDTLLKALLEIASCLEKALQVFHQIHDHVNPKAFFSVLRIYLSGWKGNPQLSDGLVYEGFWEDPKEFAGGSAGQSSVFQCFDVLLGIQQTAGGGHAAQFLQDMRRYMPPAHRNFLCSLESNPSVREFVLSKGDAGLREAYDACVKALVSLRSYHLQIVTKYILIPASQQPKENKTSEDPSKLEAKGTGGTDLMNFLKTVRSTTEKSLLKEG
Would you mind telling me the reported pIC50 of each entry?
One number for each entry, as −log10 of the molar value.

entry.smiles: CC(C)CN(CC(C)C)c1ccc(/C(=N/O)Nc2ccc(F)c(Br)c2)cc1NC(=O)Nc1ccc(Cl)cc1
pIC50: 6.36

entry.smiles: Cc1ccc(N/C(=N\O)c2ccc(N(CC(C)C)CC(C)C)c(NC(=O)Nc3cncnc3)c2)cc1
pIC50: 6.36

entry.smiles: CC(C)CN(CC(C)C)c1ccc(/C(=N/O)Nc2ccc(F)c(Br)c2)cc1NC(=O)Nc1cncnc1
pIC50: 6.07

entry.smiles: Cc1ccc(NC(=O)Nc2cc(/C(=N/O)Nc3ccc(F)c(Br)c3)ccc2N(CC(C)C)CC(C)C)cc1
pIC50: 6.12

entry.smiles: CCCNC(=O)Nc1cc(/C(=N/O)Nc2ccc(F)c(Br)c2)ccc1N(CC(C)C)CC(C)C
pIC50: 5.58

Quick request: pIC50 for each listed item, please.
1. CC(C)CN(CC(C)C)c1ccc(/C(=N/O)Nc2ccc(F)c(Br)c2)cc1NC(=O)NC1CCCCC1
2. CCCCNC(=O)Nc1cc(/C(=N/O)Nc2ccc(F)c(Br)c2)ccc1N(CC(C)C)CC(C)C
3. Cc1ccc(NC(=O)Nc2cc(/C(=N/O)Nc3ccc(C)cc3)ccc2N(CC(C)C)CC(C)C)cc1
4. CC(C)CN(CC(C)C)c1ccc(/C(=N/O)Nc2ccc(F)c(Br)c2)cc1NC(=O)Nc1ccc(C(F)(F)F)cc1

OUT:
5.87
5.51
5.87
5.68

* * *

biological target: UniProtKB P14902; assay: Inhibition of recombinant human IDO1
Output yes for records whose IC50 is lower than 2000 nM, no for records at or above 2000 nM.

Please review the entries below; each comes with its answer.
entry.smiles: CC(C)CN(CC(C)C)c1ccc(/C(=N/O)Nc2ccc(F)c(Br)c2)cc1NC(=O)Nc1ccc(Cl)cc1
category: yes
--
entry.smiles: CC(C)CN(CC(C)C)c1ccc(/C(=N/O)Nc2ccc(F)c(Br)c2)cc1NC(=O)Nc1ccc(C(F)(F)F)cc1
category: no

IN: Take the compound Cc1ccc(NC(=O)Nc2cc(/C(=N/O)Nc3ccc(F)c(Br)c3)ccc2N(CC(C)C)CC(C)C)cc1 and say whether its IC50 is less than 2000 nM.
OUT: no

* * *

target: Indoleamine 2,3-dioxygenase 1 (Homo sapiens); experiment: Inhibition of recombinant human IDO1
Could you please report measured IC50 for the items listed next?

entry.smiles: CC(C)CN(CC(C)C)c1ccc(/C(=N/O)Nc2ccc(F)c(Br)c2)cc1NC(=O)NC1CCCCC1
result: > 3 µM

entry.smiles: Cc1ccc(NC(=O)Nc2cc(/C(=N/O)Nc3ccc(C)cc3)ccc2N(CC(C)C)CC(C)C)cc1
result: 1.56 µM

entry.smiles: Cc1ccc(N/C(=N\O)c2ccc(N(CC(C)C)CC(C)C)c(NC(=O)Nc3cncnc3)c2)cc1
result: 2.32 µM

entry.smiles: CCCNC(=O)Nc1cc(/C(=N/O)Nc2ccc(F)c(Br)c2)ccc1N(CC(C)C)CC(C)C
result: 2.9 µM

entry.smiles: CC(C)CN(CC(C)C)c1ccc(/C(=N/O)Nc2ccc(F)c(Br)c2)cc1NC(=O)Nc1cncnc1
result: > 3 µM

I need IC50 for every entry listed below, if you could help.
1. CCCCNC(=O)Nc1cc(/C(=N/O)Nc2ccc(F)c(Br)c2)ccc1N(CC(C)C)CC(C)C
2. CCCNC(=O)Nc1nonc1/C(=N/O)Nc1ccc(F)c(Br)c1

OUT:
1. > 3 µM
2. 0.127 µM
